List of zone of inhibition at 100 µg/mL values.
- Tested on: Klebsiella pneumoniae
- experimentalProtocol: Antibacterial activity against Klebsiella pneumoniae MTCC 432 at 100 ug/ml after 16 to 18 hr by cup-plate method
- Type: functional
- measurementContext: read-out: IZ
propertyName: zone of inhibition at 100 µg/mL

>>> print(df.to_string())
                                        smi                     propertyname  recordedresult
0  Clc1ccc2c(c1)Sc1cccnc1N2CCCCN1c2ccc(Cl)cc2Sc2cccnc21  zone of inhibition at 100 µg/mL           11 mm
1  c1ccc2c(c1)Sc1cccnc1N2CCCCCCN1c2ccccc2Sc2cccnc21  zone of inhibition at 100 µg/mL           12 mm
2  Brc1ccc2c(c1)Sc1cccnc1N2CCCCCCN1c2ccc(Br)cc2Sc2cccnc21  zone of inhibition at 100 µg/mL           12 mm
3  c1ccc2c(c1)Sc1cccnc1N2CCCCN1c2ccccc2Sc2cccnc21  zone of inhibition at 100 µg/mL           12 mm
4  Brc1ccc2c(c1)Sc1cccnc1N2CCCCN1c2ccc(Br)cc2Sc2cccnc21  zone of inhibition at 100 µg/mL           11 mm
5      CC(=O)Nc1ccccc1Sc1ncccc1[N+](=O)[O-]  zone of inhibition at 100 µg/mL           11 mm
6  Fc1ccc2c(c1)Sc1cccnc1N2CCCCN1c2ccc(F)cc2Sc2cccnc21  zone of inhibition at 100 µg/mL           11 mm
7  C(=C\CN1c2ccccc2Sc2cccnc21)/CN1c2ccccc2Sc2cccnc21  zone of inhibition at 100 µg/mL           11 mm
8  Fc1ccc2c(c1)Sc1cccnc1N2CCCCCCN1c2ccc(F)cc2Sc2cccnc21  zone of inhibition at 100 µg/mL           11 mm
9   CC(=O)Nc1ccc(F)cc1Sc1ncccc1[N+](=O)[O-]  zone of inhibition at 100 µg/mL           11 mm

====

List of zone of inhibition at 100 µg/mL values.
- Tested on: Pseudomonas aeruginosa
- experimentalProtocol: Antibacterial activity against Pseudomonas aeruginosa MTCC 424 at 100 ug/ml after 16 to 18 hr by cup-plate method
- Type: functional
- measurementContext: read-out: IZ
propertyName: zone of inhibition at 100 µg/mL (mm)

In [3]: df
Out[3]:
                                        smi  unitslabel  recordedresult
0  Fc1ccc2c(c1)Sc1cccnc1N2CCCCN1c2ccc(F)cc2Sc2cccnc21          mm              10
1  CC(=O)Nc1ccc(Cl)cc1Sc1ncccc1[N+](=O)[O-]          mm              14
2      CC(=O)Nc1ccccc1Sc1ncccc1[N+](=O)[O-]          mm              12
3  Brc1ccc2c(c1)Sc1cccnc1N2CCCCCCN1c2ccc(Br)cc2Sc2cccnc21          mm              13
4  Clc1ccc2c(c1)Sc1cccnc1N2CCCCCCN1c2ccc(Cl)cc2Sc2cccnc21          mm              12
5  c1ccc2c(c1)Sc1cccnc1N2CCCCN1c2ccccc2Sc2cccnc21          mm              13
6  O=C(O)c1cn(C2CC2)c2cc(N3CCNCC3)c(F)cc2c1=O          mm              18
7  Brc1ccc2c(c1)Sc1cccnc1N2C/C=C/CN1c2ccc(Br)cc2Sc2cccnc21          mm              10
8  Clc1ccc2c(c1)Sc1cccnc1N2CCCCN1c2ccc(Cl)cc2Sc2cccnc21          mm              11
9   CC(=O)Nc1ccc(F)cc1Sc1ncccc1[N+](=O)[O-]          mm              14

====

- System: Klebsiella pneumoniae
- experimentalProtocol: Antibacterial activity against Klebsiella pneumoniae MTCC 432 at 100 ug/ml after 16 to 18 hr by cup-plate method
- Assay type: functional
- measurementContext: read-out: IZ
List of zone of inhibition at 100 µg/mL values.
propertyName: zone of inhibition at 100 µg/mL (mm)

In [3]: df
Out[3]:
                                   compound  recordedresult
0  Brc1ccc2c(c1)Sc1cccnc1N2C/C=C/CN1c2ccc(Br)cc2Sc2cccnc21              11
1  O=C(O)c1cn(C2CC2)c2cc(N3CCNCC3)c(F)cc2c1=O [CIPROFLOXACIN]              17
2  Clc1ccc2c(c1)Sc1cccnc1N2CCCCCCN1c2ccc(Cl)cc2Sc2cccnc21              11
3  CC(=O)Nc1ccc(Cl)cc1Sc1ncccc1[N+](=O)[O-]              13
4  CC(=O)Nc1ccc(Br)cc1Sc1ncccc1[N+](=O)[O-]              13

====

- Tested on: Pseudomonas aeruginosa
- experimentalProtocol: Antibacterial activity against Pseudomonas aeruginosa MTCC 424 at 100 ug/ml after 16 to 18 hr by cup-plate method
- Type: functional
- measurementContext: read-out: IZ
List of zone of inhibition at 100 µg/mL values.
propertyName: zone of inhibition at 100 µg/mL

>>> df
                                        smi                     propertyname  recordedresult
0  CC(=O)Nc1ccc(Br)cc1Sc1ncccc1[N+](=O)[O-]  zone of inhibition at 100 µg/mL           14 mm
1  Brc1ccc2c(c1)Sc1cccnc1N2CCCCN1c2ccc(Br)cc2Sc2cccnc21  zone of inhibition at 100 µg/mL           12 mm
2  c1ccc2c(c1)Sc1cccnc1N2CCCCCCN1c2ccccc2Sc2cccnc21  zone of inhibition at 100 µg/mL           11 mm
3  C(=C\CN1c2ccccc2Sc2cccnc21)/CN1c2ccccc2Sc2cccnc21  zone of inhibition at 100 µg/mL           12 mm
4  Fc1ccc2c(c1)Sc1cccnc1N2CCCCCCN1c2ccc(F)cc2Sc2cccnc21  zone of inhibition at 100 µg/mL           13 mm

====

- System: Staphylococcus epidermidis
- experimentalProtocol: Antibacterial activity against Staphylococcus epidermidis MTCC 435 at 100 ug/ml after 16 to 18 hr by cup-plate method
- Type: functional
- measurementContext: read-out: IZ
propertyName: zone of inhibition at 100 µg/mL (mm)

>>> df
                                        smi               targetofassay                     propertyname  unitslabel  recordedresult
0  C(=C\CN1c2ccccc2Sc2cccnc21)/CN1c2ccccc2Sc2cccnc21  Staphylococcus epidermidis  zone of inhibition at 100 µg/mL          mm              10
1  Brc1ccc2c(c1)Sc1cccnc1N2C/C=C/CN1c2ccc(Br)cc2Sc2cccnc21  Staphylococcus epidermidis  zone of inhibition at 100 µg/mL          mm              11
2  O=C(O)c1cn(C2CC2)c2cc(N3CCNCC3)c(F)cc2c1=O  Staphylococcus epidermidis  zone of inhibition at 100 µg/mL          mm              16
3  c1ccc2c(c1)Sc1cccnc1N2CCCCN1c2ccccc2Sc2cccnc21  Staphylococcus epidermidis  zone of inhibition at 100 µg/mL          mm              12
4  CC(=O)Nc1ccc(Cl)cc1Sc1ncccc1[N+](=O)[O-]  Staphylococcus epidermidis  zone of inhibition at 100 µg/mL          mm              13
5  c1ccc2c(c1)Sc1cccnc1N2CCCCCCN1c2ccccc2Sc2cccnc21  Staphylococcus epidermidis  zone of inhibition at 100 µg/mL          mm              13
6   CC(=O)Nc1ccc(F)cc1Sc1ncccc1[N+](=O)[O-]  Staphylococcus epidermidis  zone of inhibition at 100 µg/mL          mm              12
7  CC(=O)Nc1ccc(Br)cc1Sc1ncccc1[N+](=O)[O-]  Staphylococcus epidermidis  zone of inhibition at 100 µg/mL          mm              13
8  Fc1ccc2c(c1)Sc1cccnc1N2CCCCCCN1c2ccc(F)cc2Sc2cccnc21  Staphylococcus epidermidis  zone of inhibition at 100 µg/mL          mm              12
9  Fc1ccc2c(c1)Sc1cccnc1N2CCCCN1c2ccc(F)cc2Sc2cccnc21  Staphylococcus epidermidis  zone of inhibition at 100 µg/mL          mm              12
